Test system: Crude diglycosidase
TEST PROTOCOL: Examination of pH in the conversion into isoflavone aglycons by diglycosidase using soybean materials
Type: biochemical, Penicillium multicolor IAM7153
RECORDED CONDITIONS: pH1.6; heat treatment of enzyme: no; reaction time 1 h
PARAMETER MEASURED: Decomposition efficiency of glycitin family in concentrated soybean protein (%)

compound="COc1cc2c(=O)c(-c3ccc(O)cc3)coc2cc1O[C@@H]1O[C@H](CO)[C@@H](O)[C@H](O)[C@H]1O [glycitin]" assayed_target="Crude diglycosidase" test_result=52.9
compound="COc1cc2c(=O)c(-c3ccc(O)cc3)coc2cc1O[C@@H]1O[C@H](COC(=O)CC(=O)O)[C@@H](O)[C@H](O)[C@H]1O [malonylglycitin, 6″-O-malonylglycitin]" assayed_target="Crude diglycosidase" test_result=0.4
compound="COc1cc2c(=O)c(-c3ccc(O)cc3)coc2cc1O[C@@H]1O[C@H](COC(C)=O)[C@@H](O)[C@H](O)[C@H]1O [acetylglycitin, 6″-O-acetylglycitin]" assayed_target="Crude diglycosidase" test_result=35.1
compound="COc1cc2c(=O)c(-c3ccc(O)cc3)coc2cc1O [glycitein]" assayed_target="Crude diglycosidase" test_result=11.6
